// data source = patent US7998940B2

# target system: human vWF A1 domain (SEQ ID NO 5) (Homo sapiens, UniProt P04275, T1381A)
# Sequence (P04275 with tags, fused parts or gaps T1381A): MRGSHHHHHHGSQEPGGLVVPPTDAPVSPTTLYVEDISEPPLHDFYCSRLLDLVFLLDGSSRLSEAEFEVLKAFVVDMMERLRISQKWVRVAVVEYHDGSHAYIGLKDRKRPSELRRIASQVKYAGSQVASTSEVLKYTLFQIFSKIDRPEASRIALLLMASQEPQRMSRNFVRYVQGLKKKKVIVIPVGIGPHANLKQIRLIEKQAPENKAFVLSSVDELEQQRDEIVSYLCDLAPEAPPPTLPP
# test method notes: dot blot KD determination, human vWF A1 domain
# conditions used: read-out: human A1 KD; rRfY aptamers; 8 point titration of human vWF A1 domain
Oligonucleotides are written 5' to 3', each unit as a sugar letter and its base; * is a phosphorothioate linkage, no mark a phosphodiester; rarer units and linkages stand in square brackets, end groups in braces. Plain capitals give the bases only. r = 2'-OH (RNA); f = 2'-fluoro
assay metric: Kd
A bare number is not enough; add the unit after it.

Provide Kd value for the following molecule: AMX198.G1: rRfY aptamer clone (nucleic acid) rGrGrArGfCrGfCrAfCfUfCrArGfCfCrAfCrArAfCrAfCfUrArAfUrGrGrGrGrArArArGfUfUfCrArArGrGrAfUfUfCfUfUrGrAfCfCrGrGfUrGfCrGfUfUfUfCrGrAfCfCfUfCfUfCfUrGfCfUrArGfC 45 nM

Provide Kd value for the following molecule: AMX201.B1: rRfY aptamer clone (nucleic acid) rGrGrArGfCrGfCrAfCfUfCrArGfCfCrAfCrArGrArGfCfCfCfUrGrArGfUrGfUrAfUrGrAfUfCrGfCfCfUrArGrAfUfCfUrAfUfCrGrAfUrGfCfUfUfUfUfUfCrGrAfCfCfUfCfUfCfUrGfCfUrArGfC 19 nM
